Below, each of the compounds is paired with its reported IC50 value.
test system: HCV replicon; assay: microbe, parasite or virus in culture; type: cell-based, hepatitis C virus; settings: Hepatitis C virus, read-out: Replicon IC50 μM

compound	IC50
CCOc1ccc2c(C#N)c(-c3ccc(N4C(=O)CNC4=O)cc3)n(CC)c2c1	< 0.5 µM
CCn1c(-c2ccc([N+](=O)[O-])cc2)c(C#N)c2cc(CN3CCOCC3)c(OC)cc21	> 2 µM
N#Cc1c(-n2cccc2)[nH]c2cc([N+](=O)[O-])ccc12	0.5 to 2 µM
CCn1c(-c2ccc(OCCOC)cc2)c(C#N)c2ccc(OC)cc21	0.5 to 2 µM
CCn1c(-c2ccc(N3CCOC3=O)cc2)c(C#N)c2ccc(OC(C)C)cc21	> 2 µM
CCn1c(-c2ccc(N(CCOC(C)=O)S(C)(=O)=O)cc2)c(C#N)c2ccc(OC)cc21	> 2 µM
CCOc1ccc2c(C#N)c(-c3ccc(NP(=O)(OCC)OCC)cc3)n(CC)c2c1	< 0.5 µM
CCn1cc(-c2ccccc2)c2cc([N+](=O)[O-])ccc21	> 2 µM
CCn1c(-c2ccc(S(C)(=O)=O)cc2)c(C#N)c2ccc(OC)cc21	> 2 µM
COC(=O)c1cccc(-c2noc(-c3[nH]c4cc(OC)ccc4c3C#N)n2)c1	> 2 µM

Request: I am curious: what IC50 value has been reported for `CCn1c(COc2ccccc2)c(C#N)c2ccc(OC)cc21` ?
Result: > 2 µM

Request: Find the recorded IC50 belonging to `CCn1c(-c2ccc(N3CCCS3(=O)=O)cc2)c(C#N)c2ccc(OCCN3CCOCC3)cc21` and report it.
Result: > 2 µM

Request: Return reported IC50; argument: `CCn1c(-c2ccc3[nH]c(=O)oc3c2)c(C#N)c2ccc(OC)cc21`
Result: > 2 µM
